target: PTAFR (Homo sapiens, UniProt P25105); construct: purchased Promega (in-house HiBiT-GPCR construct library, NanoBRET); assay: NanoBRET screen HiBiT-PTAFR in HEK293; assay type: binding; conditions: PTAFR; tracer 1μM
Sequence (P25105 whole entry): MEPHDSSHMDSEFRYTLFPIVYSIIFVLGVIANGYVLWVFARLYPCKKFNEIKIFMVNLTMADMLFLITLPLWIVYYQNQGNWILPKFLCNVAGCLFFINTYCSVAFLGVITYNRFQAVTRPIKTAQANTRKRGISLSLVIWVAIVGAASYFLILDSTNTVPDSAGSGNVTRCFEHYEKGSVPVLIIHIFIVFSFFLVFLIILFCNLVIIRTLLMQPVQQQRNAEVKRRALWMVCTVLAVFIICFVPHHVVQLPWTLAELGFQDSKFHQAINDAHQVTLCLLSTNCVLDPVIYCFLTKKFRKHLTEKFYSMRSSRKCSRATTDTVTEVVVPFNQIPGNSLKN
Overview of reported NanoBRET Fold Response across a group of compounds:
# respond with the number and nothing more

Use these answered entries as a reference point.
Task item: Consider the compound `O=C(CCc1ccc2n1[B-](F)(F)[N+]1=C(c3ccc[nH]3)C=CC1=C2)NCCOCCOCCNC(=O)OCCOCCN1CCN(C2=Nc3ccccc3Sc3ccccc32)CC1` and give its measured NanoBRET Fold Response.
Reply: 1.13

Task item: Entry under review: Cc1nc2n(c(=O)c1CCN1CCC(c3noc4cc(F)ccc34)CC1)CCCC2OC(=O)NCCOCCOCCOCCOCCNC(=O)CCc1ccc2n1[B-](F)(F)[N+]1=C(c3ccc[nH]3)C=CC1=C2 (centres unmarked) . Reported NanoBRET Fold Response?
Reply: 1.10

Task item: Would you kindly share the measured NanoBRET Fold Response for `CC(C)N(CC[C@H](c1ccccc1)c1cc(CCNC(=O)CCOCCOCCOCCOCCNC(=O)CCc2ccc3n2[B-](F)(F)[N+]2=C(c4ccc[nH]4)C=CC2=C3)ccc1O)C(C)C` ?
Reply: 0.73

Task item: Entry `O=C(CCOCCOCCOCCOCCNC(=O)CCc1ccc2n1[B-](F)(F)[N+]1=C(c3ccc[nH]3)C=CC1=C2)NCCCN1CCN(C2=Nc3ccccc3Oc3ccc(Cl)cc32)CC1` has what NanoBRET Fold Response?
Reply: 1.09

Task item: Bench note: what NanoBRET Fold Response did `N#CN=C(NCCCOc1cccc(CN2CCCCC2)c1)NCCNC(=O)CCOCCOCCOCCOCCNC(=O)CCc1ccc2n1[B-](F)(F)[N+]1=C(c3ccc[nH]3)C=CC1=C2` show?
Reply: 1.02

Task item: Any idea what its NanoBRET Fold Response is? The compound is O=C(CCc1ccc2n1[B-](F)(F)[N+]1=C(c3ccc[nH]3)C=CC1=C2)NCc1ccc(C(=O)NCCOCCC(=O)N[C@@H]2CC[C@@]3(O)[C@H]4Cc5ccc(O)c6c5[C@@]3(CCN4CC3CC3)[C@H]2O6)cc1 [Naltrexone-3-NB590]
Reply: 0.78

Further cases:
Task item: I'd like to know its NanoBRET Fold Response. The compound in question is `Cc1cc2c(s1)Nc1ccccc1N=C2N1CCN(CCCNC(=O)CCOCCOCCOCCOCCNC(=O)CCc2ccc3n2[B-](F)(F)[N+]2=C(c4ccc[nH]4)C=CC2=C3)CC1`
Reply: 0.99

Task item: NanoBRET Fold Response for `CCCn1c(=O)c2[nH]c(-c3ccc(OCC(=O)NCCNC(=O)CCOCCNC(=O)c4ccc(CNC(=O)CCc5ccc6n5[B-](F)(F)[N+]5=C(c7ccc[nH]7)C=CC5=C6)cc4)cc3)nc2n(CCC)c1=O` ?
Reply: 1.15

Task item: So what does the record say about NanoBRET Fold Response for `CC(C)N(CC[C@H](c1ccccc1)c1cc(CCNC(=O)c2ccc(CNC(=O)CCc3ccc4n3[B-](F)(F)[N+]3=C(c5ccc[nH]5)C=CC3=C4)cc2)ccc1O)C(C)C` ?
Reply: 0.85

Task item: Which NanoBRET Fold Response reading was recorded for the compound `COc1ccccc1N1CCN(CCCCN2C(=O)c3ccc(CNC(=O)CCOCCNC(=O)c4ccc(CNC(=O)CCc5ccc6n5[B-](F)(F)[N+]5=C(c7ccc[nH]7)C=CC5=C6)cc4)cc3C2=O)CC1` ?
Reply: 1.30

Task item: Which NanoBRET Fold Response value belongs to `COc1ccccc1N1CCN(CCCCN2C(=O)c3ccc(CNC(=O)CCOCCOCCOCCOCCNC(=O)CCc4ccc5n4[B-](F)(F)[N+]4=C(c6ccc[nH]6)C=CC4=C5)cc3C2=O)CC1` ?
Reply: 1.04
